tested on: Setaria viridis; experiment: Post-emergence test on weeds (greenhouse, spray at 2-3 leaf stage); assay type: in vivo; parameters: key: Level 10: completely dead; Level 9: growth control rate greater than or equal to 90% and less than 100%; Level 8: growth control rate greater than or equal to 80% and less than 90%; Level 7: growth control rate greater than or equal to 70% and less than 80%; Level 6: growth control rate greater than or equal to 60% and less than 70%; Level 5: growth control rate greater than or equal to 50% and less than 60%; Level 4: growth control rate greater than or equal to 40% and less than 50%; Level 3: growth control rate greater than or equal to 30% and less than 40%; Level 2: growth control rate greater than or equal to 20% and less than 30%; Level 1: growth control rate less than 20%; Level 0: no effect; conditions: 60 g a.i./ha, 3 weeks after application
From the text: […]
Known activity level (fresh weight growth control rate), Setaria viridis of a selection of molecules
# respond with the number and nothing more

CCCOC(=O)C1(C)ON=C(c2cc(-c3ncc(C(F)(F)F)cc3Cl)c(F)cc2Cl)O1 (centres unmarked); 10
COCCOC(=O)C1(C)ON=C(c2cc(-c3ncc(C(F)(F)F)cc3Cl)c(F)cc2Cl)O1 (centres unmarked); 10
CCCOC(=O)C1(C)ON=C(c2cc(-c3ncc(Cl)cc3Cl)c(F)cc2Cl)O1 (centres unmarked); 10
COC(=O)C1(C)ON=C(c2cc(-c3ncc(OC(F)F)cc3Cl)c(F)cc2Cl)O1 (centres unmarked); 10

We next turn to a different molecule, shown below.
(Q) activity level (fresh weight growth control rate), Setaria viridis lookup needed for COCCCOC(=O)C1(C)ON=C(c2cc(-c3ncc(C(F)(F)F)cc3Cl)c(F)cc2Cl)O1 (centres unmarked) , thanks.
(A) 10

---

Known activity level (fresh weight growth control rate), Setaria viridis of a selection of compounds
test system: Setaria viridis; assay: Post-emergence test on weeds (greenhouse, spray at 2-3 leaf stage); format: in vivo; set-up: key: Level 10: completely dead; Level 9: growth control rate greater than or equal to 90% and less than 100%; Level 8: growth control rate greater than or equal to 80% and less than 90%; Level 7: growth control rate greater than or equal to 70% and less than 80%; Level 6: growth control rate greater than or equal to 60% and less than 70%; Level 5: growth control rate greater than or equal to 50% and less than 60%; Level 4: growth control rate greater than or equal to 40% and less than 50%; Level 3: growth control rate greater than or equal to 30% and less than 40%; Level 2: growth control rate greater than or equal to 20% and less than 30%; Level 1: growth control rate less than 20%; Level 0: no effect; conditions: 60 g a.i./ha, 3 weeks after application
# respond with the number and nothing more

The cases that follow already have their activity level (fresh weight growth control rate), Setaria viridis on record.
CCCCOC(=O)C1(C)ON=C(c2cc(-c3ncc(C(F)(F)F)cc3Cl)c(F)cc2Cl)O1 (centres unmarked); 10
CC1(C(=O)OC2CCCC2)ON=C(c2cc(-c3ncc(C(F)(F)F)cc3Cl)c(F)cc2Cl)O1 (centres unmarked); 10
CCOC(=O)C1(C)ON=C(c2cc(-c3ncc(Cl)cc3Cl)c(F)cc2Cl)O1 (centres unmarked); 10
CC1(C(=O)OCCCF)ON=C(c2cc(-c3ncc(C(F)(F)F)cc3Cl)c(F)cc2Cl)O1 (centres unmarked); 10
CCOC(=O)C1ON=C(c2cc(-c3ncc(C(F)(F)F)cc3Cl)c(F)cc2Br)O1 (centres unmarked); 10
CCOC(=O)C1(C)ON=C(c2cc(-c3ncc(C(F)(F)F)cc3Cl)c(F)cc2C(F)(F)F)O1 (centres unmarked); 10
CCOC(=O)C1(C)ON=C(c2cc(-c3ncc(C(F)(F)F)cc3F)c(F)cc2Cl)O1 (centres unmarked); 10

We next turn to a different compound, shown below.
(Q) activity level (fresh weight growth control rate), Setaria viridis lookup needed for CC1(C(=O)OCCF)ON=C(c2cc(-c3ncc(C(F)(F)F)cc3Cl)c(F)cc2Cl)O1 (centres unmarked) , thanks.
(A) 10
